All figures here come from ChEMBL document CHEMBL5226291.

- Test system: Middle East respiratory syndrome-related coronavirus
- Experiment Summary: Antiviral activity against recombinant MERS-CoV pseudovirus infected in Huh-7 cells assessed as inhibition of viral replication measured after 72 hrs by luminometer
- Type: functional, organism-based
- Test Context: Huh-7, 72 h
Measured Quantity: pIC50
A value of pIC50 is the negative decimal logarithm of a concentration given in moles per litre.

pIC50 in this record for `COc1ccc(S(=O)(=O)O)cc1/N=N/c1c(S(=O)(=O)O)cc2cc(Nc3nc(Nc4ccccc4)nc(Nc4cc(C)c(/N=N/c5cc(S(=O)(=O)O)cc6cc(S(=O)(=O)O)cc(O)c56)cc4OC)n3)ccc2c1O` : 6.22
